# System: Plasma
# Experimental parameters: rat, iv, 4 h
Measured property: Cp(f) (nM)
// return numeric value only (unit: nM, not printed)

## Task Give the reported Cp(f) for Nc1nnc(-c2cccc(Cl)c2Cl)c(N)n1 (system: Plasma).
## Result 1800

---

Overview of recorded fraction unbound at 4 h for various compounds
# Test name: in vitro
# Experimental parameters: Sprague-Dawley, rat, plasma, iv, 2 (umol/kg)/hr
// return a plain number; no unit text

Field: example entries. Status: answers known.
• CC(C)NCC(O)COc1cccc2ccccc12 (centres undefined) = 0.09
• C=CCc1ccccc1OCC(O)CNC(C)C (centres undefined) = 0.44

## Task Returns the measured fraction unbound at 4 h for the input compound. Input: CN(C)C(=O)C(CCN1CCC(O)(c2ccc(Cl)cc2)CC1)(c1ccccc1)c1ccccc1 [LOPERAMIDE]
## Result 0.06

## Task Returns the measured fraction unbound at 4 h for the input compound. Input: COc1ccc2c3c1O[C@H]1[C@@H](O)C=C[C@H]4[C@@H](C2)N(C)CC[C@@]341
## Result 0.95

## Task Returns the measured fraction unbound at 4 h for the input compound. Input: COc1cccc(C2(O)CCCCC2CN(C)C)c1 (centres undefined)
## Result 0.85

## Task Returns the measured fraction unbound at 4 h for the input compound. Input: Cc1cn([C@H]2C[C@H](N=[N+]=[N-])[C@@H](CO)O2)c(=O)[nH]c1=O
## Result 0.64

## Task Returns the measured fraction unbound at 4 h for the input compound. Input: NCC1(CC(=O)O)CCCCC1
## Result 1

## Task Returns the measured fraction unbound at 4 h for the input compound. Input: CN1CC[C@]23c4c5ccc(O)c4O[C@H]2[C@@H](O[C@@H]2O[C@H](C(=O)O)[C@@H](O)[C@H](O)[C@H]2O)C=C[C@H]3[C@H]1C5 [MORPHINE GLUCURONIDE]
## Result 0.98

## Task Returns the measured fraction unbound at 4 h for the input compound. Input: CCC(C(N)=O)(C(N)=O)c1ccccc1 [PHENYLETHYLMALONAMIDE]
## Result 0.55

---

Overview of recorded fraction unbound at 4 h for various compounds
# Test name: in vitro
# Experimental parameters: Sprague-Dawley, rat, plasma, iv, 2 (umol/kg)/hr
// return a plain number; no unit text

Field: example entries. Status: answers known.
- O=C(O)c1ccccc1O: 0.28
- O=C1CN(/N=C/c2ccc([N+](=O)[O-])o2)C(=O)N1: 0.48
- CN(Cc1cnc2nc(N)nc(N)c2n1)c1ccc(C(=O)N[C@@H](CCC(=O)O)C(=O)O)cc1 [METHOTREXATE]: 1
- CC(C)(C)NCC(O)COc1cccc2c1CC(O)C(O)C2 (centres undefined): 0.86
- NCC(CC(=O)O)c1ccc(Cl)cc1 (centres undefined): 1

## Task Returns the measured fraction unbound at 4 h for the input compound. Input: C=CCOc1ccccc1OCC(O)CNC(C)C (centres undefined)
## Result 0.45

## Task Returns the measured fraction unbound at 4 h for the input compound. Input: CO/N=C(\C(=O)N[C@@H]1C(=O)N2C(C(=O)O)=C(COC(C)=O)CS[C@H]12)c1csc(N)n1
## Result 0.59

## Task Returns the measured fraction unbound at 4 h for the input compound. Input: COCCc1ccc(OCC(O)CNC(C)C)cc1 (centres undefined)
## Result 0.9

## Task Returns the measured fraction unbound at 4 h for the input compound. Input: CC(C)Nc1cccnc1N1CCN(C(=O)c2cc3cc(NS(C)(=O)=O)ccc3[nH]2)CC1
## Result 0.016

---

# Test name: in vivo
# Experimental parameters: Sprague-Dawley, rat, CSF and plasma, iv, 2 (umol/kg)/hr
Measured property: Kp uu at 4 h
// return a plain number; no unit text

* C[C@H]1COc2c(N3CCN(C)CC3)c(F)cc3c(=O)c(C(=O)O)cn1c23.C[C@H]1COc2c(N3CCN(C)CC3)c(F)cc3c(=O)c(C(=O)O)cn1c23.O | 0.19

## Task Returns the measured Kp uu at 4 h for the input compound. Input: NCC1(CC(=O)O)CCCCC1
## Result 0.067

## Task Returns the measured Kp uu at 4 h for the input compound. Input: CN1CC[C@]23c4c5ccc(O)c4O[C@H]2[C@@H](O[C@@H]2O[C@H](C(=O)O)[C@@H](O)[C@H](O)[C@H]2O)C=C[C@H]3[C@H]1C5 [MORPHINE GLUCURONIDE]
## Result 0.017

---

# Test name: in vivo
# Experimental parameters: Sprague-Dawley, rat, brain and plasma, iv, 2 (umol/kg)/hr
Measured property: Kp uu at 4 h
// return a plain number; no unit text

Field: example entries. Status: answers known.
• C[C@H]1COc2c(N3CCN(C)CC3)c(F)cc3c(=O)c(C(=O)O)cn1c23.C[C@H]1COc2c(N3CCN(C)CC3)c(F)cc3c(=O)c(C(=O)O)cn1c23.O = 0.12
• CN1CC[C@]23c4c5ccc(O)c4O[C@H]2C(=O)CC[C@@]3(O)[C@H]1C5 = 0.79
• CC(C)NCC(O)COc1cccc2ccccc12 (stereo not given) = 0.61
• NCC1(CC(=O)O)CCCCC1 = 0.14
• CC(C)NCC(O)COc1cccc2[nH]ccc12 (stereo not given) = 0.5

## Task Returns the measured Kp uu at 4 h for the input compound. Input: CCC(C(N)=O)(C(N)=O)c1ccccc1 [PHENYLETHYLMALONAMIDE]
## Result 1.25

---

Overview of recorded Kp at 4 h for various compounds
# Test name: in vivo
# Experimental parameters: Sprague-Dawley, rat, brain, iv, 2 (umol/kg)/hr
// return a plain number; no unit text

Field: example entries. Status: answers known.
• CO[C@@]1(NC(=O)C(C(=O)O)c2ccc(O)cc2)C(=O)N2C(C(=O)O)=C(CSc3nnnn3C)CO[C@@H]21 (some centres undefined) = 0.003
• CC(C)(C)NC(=O)[C@@H]1C[C@@H]2CCCC[C@@H]2CN1C[C@@H](O)[C@H](Cc1ccccc1)NC(=O)[C@H](CC(N)=O)NC(=O)c1ccc2ccccc2n1 = 0.08
• COc1ccc2c(c1)c(CC(=O)O)c(C)n2C(=O)c1ccc(Cl)cc1 = 0.01

As a next step, examine the compound that follows.
## Task Returns the measured Kp at 4 h for the input compound. Input: CCn1cc(C(=O)O)c(=O)c2cc(F)c(N3CCNCC3)cc21
## Result 0.07

---

# Test name: in vitro
# Experimental parameters: Sprague-Dawley, rat, plasma, iv, 2 (umol/kg)/hr
Overview of recorded fraction unbound at 4 h for various compounds
// return a plain number; no unit text

Field: example entries. Status: answers known.
- CN1CC[C@]23c4c5ccc(O)c4O[C@H]2C(=O)CC[C@@]3(O)[C@H]1C5: 0.73
- Nc1c2c(nc3ccccc13)CCCC2: 0.55
- CC(C)(C)NC(=O)[C@@H]1C[C@@H]2CCCC[C@@H]2CN1C[C@@H](O)[C@H](Cc1ccccc1)NC(=O)[C@H](CC(N)=O)NC(=O)c1ccc2ccccc2n1: 0.007

As a next step, examine the compound that follows.
## Task Returns the measured fraction unbound at 4 h for the input compound. Input: COc1ccc2c(c1)c(CC(=O)O)c(C)n2C(=O)c1ccc(Cl)cc1
## Result 0.01

---

# Test system: Plasma
# Experimental parameters: rat, iv, 4 h
# if measured Cp(f) < 50 nM: 1  # else: -1

* Cc1c(O)cccc1C(=O)N[C@@H](CSc1ccccc1)[C@H](O)CN1C[C@H]2CCCC[C@H]2C[C@H]1C(=O)NC(C)(C)C | 1

## Task Bench note: check whether COc1cccc(C2(O)CCCCC2CN(C)C)c1 (stereo not drawn) [TRAMADOL] shows Cp(f) below 50 nM
## Result -1

## Task Bench note: check whether O=C(O)c1cc(/N=N/c2ccc(S(=O)(=O)Nc3ccccn3)cc2)ccc1O [SULFASALAZINE] shows Cp(f) below 50 nM
## Result 1

---

# Test name: in vivo
# Experimental parameters: Sprague-Dawley, rat, CSF and plasma, iv, 2 (umol/kg)/hr
Assign class by Kp uu at 4 h: not lower than 0.5 means Met; lower than 0.5 means Not met.

- CN1CC[C@]23c4c5ccc(O)c4O[C@H]2C(=O)CC[C@@]3(O)[C@H]1C5 [OXYMORPHONE]: Met
- CN(C)C(=O)C(CCN1CCC(O)(c2ccc(Cl)cc2)CC1)(c1ccccc1)c1ccccc1 [LOPERAMIDE]: Not met

## Task Has O=C(O)c1cc(/N=N/c2ccc(S(=O)(=O)Nc3ccccn3)cc2)ccc1O [SULFASALAZINE] a recorded Kp uu at 4 h greater than or equal to 0.5?
## Result Not met

## Task Has CC1(C)O[C@@H]2[C@@H](CO[C@@]3(COS(N)(=O)=O)OC(C)(C)O[C@@H]23)O1 [TOPIRAMATE] a recorded Kp uu at 4 h greater than or equal to 0.5?
## Result Met

## Task Has CCC(C(N)=O)(C(N)=O)c1ccccc1 [PHENYLETHYLMALONAMIDE] a recorded Kp uu at 4 h greater than or equal to 0.5?
## Result Met

## Task Has CN1CC[C@]23c4c5ccc(O[C@@H]6O[C@H](C(=O)O)[C@@H](O)[C@H](O)[C@H]6O)c4O[C@H]2[C@@H](O)C=C[C@H]3[C@H]1C5 [MORPHINE 3-GLUCURONIDE] a recorded Kp uu at 4 h greater than or equal to 0.5?
## Result Not met

## Task Has CC(C)NCC(O)COc1cccc2[nH]ccc12 (configuration not stated) [PINDOLOL] a recorded Kp uu at 4 h greater than or equal to 0.5?
## Result Not met
